tested on: SF-295; experiment: NCI tumour cell line growth inhibition, 48 h
Calls of active or inactive are those of the source. No stated cut-off is given here; in the data, active = GI50 up to about 1.1 µM and inactive = higher.
Respond using exactly one of the listed classes: active, inactive

Worked examples follow.
>>> print(df.to_string())
                                   compound  system_under_test  class_assignment
0  CCOC(=O)C(=[N+]=[N-])C(=O)CN1C(=O)C2CC(C)=C(C)CC2C1O (stereo not given)             SF-295          inactive
1          O=[N+]([O-])c1ccc2nc(=S)[nH]n2c1             SF-295          inactive
2  CC1=CCC2CC1NC(=O)CCOCCC(=O)NC2(C)C (stereo not given)             SF-295          inactive
3                 O=C(NCc1cccnc1)NCc1cccnc1             SF-295          inactive
4  CCN(CC)CCCNC(=O)C1COc2cc(-c3cc(=O)c4ccccc4o3)ccc2O1 (stereo not given)             SF-295          inactive
5  CCCNC1=C2CC(C)CC(OC)[C@@H](O)[C@H](C)/C=C(\C)C(OC(N)=O)C(OC)/C=C\C=C(/C)C(=O)NC(=CC1=O)C2=O (stereo not given in full)             SF-295            active
6            CO/N=C\c1cc(O)c(O)c(/C=N/OC)c1             SF-295          inactive
7      Cn1c(N)c(Cc2ccc(Cl)cc2)c(=O)[nH]c1=O             SF-295          inactive
8  Cn1c(Nc2ccccc2)c(/C=N\c2ccccc2)c(=O)n(C)c1=O             SF-295          inactive

Moving on to the next compound.
Lab log entry: C[C@@H](C[C@@H](O)[C@H](O)C(C)(C)O)[C@H]1CC=C2[C@]3(C)[C@H](O)C[C@H]4C(C)(C)[C@H](O)CC[C@]4(C)[C@H]3CC[C@@]21C — outcome as called in the assay?
inactive

###

test system: OVCAR-3; assay: NCI tumour cell line growth inhibition, 48 h
The source made the active and inactive calls. Rule as the data show it: active = GI50 up to about 1.1 µM and inactive = higher.
Respond using exactly one of the listed classes: active, inactive

Worked examples follow.
compound	system under test	class assignment
COc1ccc(C2c3cc4c(cc3OC(N3CCOCC3)C2C)OCO4)cc1 (configuration not stated)	OVCAR-3	inactive
O=c1oc2ccccc2cc1-c1ccc([N+](=O)[O-])cc1	OVCAR-3	inactive
NCCCNCCSP(=O)(O)O	OVCAR-3	inactive

Lab log entry: CC(C)(C)OC(=O)NC(Cc1ccccc1)C(=S)N1CCCC1 (configuration not stated) — outcome as called in the assay?
inactive

For Cc1cc2nc3c(=O)n(C)c(=O)nc-3n(-c3ccc(Cl)cc3)c2cc1C then?
inactive

For O=C1C2=C(CC3C(C2)C3(Br)Br)C(=O)C2=C1CC1C(C2)C1(Br)Br (configuration not stated) then?
inactive

For CNc1ncc(-c2nnnn2-c2ccccc2)c(CN(C)C)n1 then?
inactive

For Nc1nnc2n1C(=O)C(C1(C3=Nc4nnc(N)n4C3=O)Cc3ccccc3C1=O)=N2 then?
inactive

For O=C1C(=O)N(c2ccc(Cl)cc2Cl)C(=O)C(=O)C1c1nc2ccccc2o1 then?
inactive

For O=C1C=CC2(C=C1)O[C@H](Cc1ccccc1)[C@@H](Cc1ccccc1)O2 then?
active

For COC1C(O)C(O[C@H]2CC[C@@]3(C)C(CC[C@@H]4[C@@H]3CC[C@]3(C)[C@@H](C(C)OC5OC(CO)C(O)C(O)C5O)CC[C@]43O)C2)OC(C)C1OC1OC(CO)C(O)C(O)C1O (some centres not stated) then?
inactive

For CC1(C)[C@H]2CC[C@@]13C(=O)N1C(=O)O[C@@H]([C@H]1Cl)C(Cl)(COCc1ccccc1)C(=O)OCCO[C@H]3C2 (some centres not stated) then?
inactive

For CCOC(=O)C1C(c2ccc(OC)cc2)c2c(nn(-c3ccccc3)c2O)CC1(C)O (configuration not stated) then?
inactive

For CC1=C(C(=O)NCc2ccccc2)C(c2ccc(C3C(C(=O)NCc4ccccc4)=C(C)NC(C)=C3C(=O)NCc3ccccc3)cc2)C(C(=O)NCc2ccccc2)=C(C)N1 then?
inactive

For Clc1ccc(C[P+](c2ccccc2)(c2ccccc2)c2ccccc2)cc1Cl then?
inactive

For O=C1CCCN(c2ccccc2)N1 then?
inactive

For NS(=O)(=O)c1ccc(NC(=O)Nc2cccc3ccccc23)cc1 then?
inactive

For O=C(NCCCN1CCN(CCCNC(=O)Nc2cc(Cl)ccc2Cl)CC1)Nc1cc(Cl)ccc1Cl then?
inactive

For Cc1cc(NC(=O)C(=O)Cc2cnc3ccccc3n2)c(S(=O)(=O)O)cc1Cl then?
inactive

For CN(C)/N=N/c1nc2c(c(=O)n(C)c(=O)n2C)n1CC(O)CO (configuration not stated) then?
inactive
